Test system: plasmid PC15 supercoiled DNA
PROTOCOL_DETAILS: DNA unwinding assay (interference with DNA topoisomerase I-mediated unwinding; drug-DNA intercalation)
Assay type: biochemical
MEASUREMENT_CONTEXT: 0 = no intercalation, 9 = very strong intercalation
Description: DNA unwinding assays were used to measure the ability of a test drug to interfere with DNA topoisomerase I-mediated unwinding of plasmid PC15 supercoiled DNA. DNA topoisomerase I controls the topology of double-stranded DNA and is itself not inhibited by DNA intercalating agents. Rather, intercalating agents cause distortion of the torsional angle between adjacent DNA strand components and thereby interfere with the ability of topoisomerase I to convert supercoiled DNA into relaxed forms. […]
READOUT: relative strength of drug-DNA intercalation (arbitrary scale)

Would you mind telling me what relative strength of drug-DNA intercalation (arbitrary scale) value was observed for COc1cccc2c1C(=O)c1c(O)c3c(c(O)c1C2=O)C[C@@](O)(C(=O)CO)C[C@@H]3O[C@H]1C[C@H](N)[C@@H](O)[C@H](C)O1 [Epirubicin, epirubicin, reference compound] ?
7

Would you mind telling me what relative strength of drug-DNA intercalation (arbitrary scale) value was observed for `COc1cccc2c1C(=O)c1c(O)c3c(c(O)c1C2=O)C[C@@](O)(C(C)=O)C[C@@H]3O[C@H]1C[C@H](N)[C@H](O)[C@H](C)O1` ?
7

Would you mind telling me what relative strength of drug-DNA intercalation (arbitrary scale) value was observed for COc1cccc2c1C(=O)c1c(O)c3c(c(O)c1C2=O)C[C@@](O)(C(=O)CO)C[C@@H]3O[C@H]1C[C@H](N)[C@H](O)[C@H](C)O1 [Adriamycin, adriamycin, reference compound] ?
7

Would you mind telling me what relative strength of drug-DNA intercalation (arbitrary scale) value was observed for `COc1cccc2c1C(=O)c1c(O)c3c(c(O)c1C2=O)C[C@@](O)(C(C)=O)C[C@@H]3O[C@H]1C[C@H](NC(=O)N(CCCl)N=O)[C@H](O)[C@H](C)O1` ?
5

Would you mind telling me what relative strength of drug-DNA intercalation (arbitrary scale) value was observed for `COc1cccc2c1C(=O)c1c(O)c3c(c(O)c1C2=O)C[C@@](O)(C(=O)CO)C[C@@H]3O[C@H]1C[C@H](NC(=O)N(CCCl)N=O)[C@H](O)[C@H](C)O1` ?
8
